Species: Homo sapiens
Assay: Liver toxicity in human assessed as induction of drug-induced liver injury by measuring severity class index; further: key of the grades not given here
MEASURED PARAMETER: DILI_severity_class

COMPOUND: CC(=O)O[C@H]1C[C@@H]2CC[C@@H]3[C@H](CC[C@@]4(C)[C@H]3C[C@H]([N+]3(C)CCCCC3)[C@@H]4OC(C)=O)[C@@]2(C)C[C@@H]1[N+]1(C)CCCCC1
EXPERIMENTAL RESULT: 0
--
COMPOUND: CC1(C)S[C@@H]2[C@H](NC(=O)COc3ccccc3)C(=O)N2[C@H]1C(=O)O
EXPERIMENTAL RESULT: 0
--
COMPOUND: CCN(CC)CCNC(=O)c1ccc(N)cc1 [PROCAINAMIDE]
EXPERIMENTAL RESULT: 4
--
COMPOUND: C=C1/C(=C\C=C2/CCC[C@]3(C)[C@@H]([C@H](C)/C=C/[C@H](C)C(C)C)CC[C@@H]23)C[C@@H](O)C[C@@H]1O
EXPERIMENTAL RESULT: 3
--
COMPOUND: CC[C@@H](CO)NC(=O)[C@@H]1C=C2c3cccc4[nH]cc(c34)C[C@H]2N(C)C1
EXPERIMENTAL RESULT: 0
--
COMPOUND: C=CCC1(C(C)C#CCC)C(=O)N=C(O)N(C)C1=O (configuration not stated)
EXPERIMENTAL RESULT: 3
--
COMPOUND: CN1[C@@H]2CC[C@H]1C[C@@H](OC(c1ccccc1)c1ccccc1)C2
EXPERIMENTAL RESULT: 0
--
COMPOUND: CCOC(=O)[C@H](CCc1ccccc1)N[C@@H](C)C(=O)N1CCC[C@H]1C(=O)O
EXPERIMENTAL RESULT: 7
--
COMPOUND: CC(=O)CCCCn1c(=O)c2c(ncn2C)n(C)c1=O
EXPERIMENTAL RESULT: 5
--
COMPOUND: CCc1cccc2c3c([nH]c12)C(CC)(CC(=O)O)OCC3 (configuration not stated)
EXPERIMENTAL RESULT: 8
--
COMPOUND: CN(C)CCOC(C)(c1ccccc1)c1ccccn1 (configuration not stated)
EXPERIMENTAL RESULT: 0
--
COMPOUND: Cc1ccc(-c2cc(C(F)(F)F)nn2-c2ccc(S(N)(=O)=O)cc2)cc1
EXPERIMENTAL RESULT: 3
--
COMPOUND: COc1cc2ncnc(Nc3ccc(F)c(Cl)c3)c2cc1OCCCN1CCOCC1
EXPERIMENTAL RESULT: 4
--
COMPOUND: CC1=C(C/C=C(\C)CCC[C@H](C)CCC[C@H](C)CCCC(C)C)C(=O)c2ccccc2C1=O
EXPERIMENTAL RESULT: 0
--
COMPOUND: Cc1ncc(C[n+]2csc(CCO)c2C)c(N)n1
EXPERIMENTAL RESULT: 0
--
COMPOUND: CCCC(=O)Nc1ccc(OCC(O)CNC(C)C)c(C(C)=O)c1 (configuration not stated)
EXPERIMENTAL RESULT: 3
--
COMPOUND: CN(CCOc1ccc(CC2SC(=O)NC2=O)cc1)c1ccccn1 (configuration not stated)
EXPERIMENTAL RESULT: 3
